method: qHTS for inhibitors of binding or entry into cells for Marburg Virus
study conditions: Marburg virus pseudotyped entry inhibition, cell reporter; series mostly up to 37.8 µM
The campaign covered roughly 300,000 compounds. About 5,400 (1.8%) were called active. About 28% were inconclusive and are not listed. Calls come from the whole dose curve; tested in HEK293 cells. The sample holds actives, similar compounds and a random draw of the others, so the mix is not that of the screen.
In this exercise, the only acceptable responses are active, inactive

// param item: Cc1ccc2c(c1)N(CC(=O)NCC1CCCO1)C(=O)CO2 (stereo not given) ; yields the recorded call
inactive

Query Cc1nn(-c2ccccc2)c(C)c1NC(=O)COc1ccc(Cl)cc1Cl next
active

Query COc1cccc(/C(C)=N/Nc2ncc(Cl)cc2Cl)c1 next
inactive

Query Cc1nn(-c2ccccc2)c(C)c1NC(=O)COC(=O)Cc1ccccc1 next
inactive

Query CC1CCCCC1NC(=O)COc1ccc(C#N)cc1 (stereo not given) next
inactive

Query Cc1ccccc1N1CCN(C(=O)c2cccnc2)CC1 next
inactive

Query COc1ccccc1C(=O)NCCC(=O)NCC(c1ccco1)N1CCCCC1 (stereo not given) next
inactive

Query O=[N+]([O-])c1ccccc1/C=C/CN1CCCC(CO)C1 (stereo not given) next
inactive

Query COc1cc(/C=C2\SC(=S)N(Nc3ncc(C(F)(F)F)cc3Cl)C2=O)cc(OC)c1OC next
inactive

Query CC1CCCCC1NC(=O)/C(C#N)=C/C=C/c1ccccc1[N+](=O)[O-] (stereo not given) next
active
